assay: in vitro; conditions: rat, gh3-tre-luc cells, AC50 (uM) modified / 1000, Tox21_110001=Tox21_111517; viability, 1 nM T3 present, 24 h
readout: CC50 at 24 h

Param item = C=CCC1(C(C)CCC)C(=O)N=C(S)NC1=O (stereo not shown) [Thiamylal sodium] ; retrieve measured CC50 at 24 h.
> 50 µM

----------
test: in vitro; conditions: rat, gh3-tre-luc cells, AC50 (uM) modified / 1000, Tox21_110001=Tox21_201601; viability, 1 nM T3 present, 24 h
readout: CC50 at 24 h

I am curious: what CC50 at 24 h value has been reported for O=c1[nH]c(=O)n(Cl)c(=O)n1Cl [Sodium dichloroisocyanurate] ?
> 90 µM

----------
assay: in vitro; details: rat, gh3-tre-luc cells, AC50 (uM) modified / 1000
Where a name gives a salt, the structure may show the parent alone.
readout: CC50 at 24 h

// worked examples, CC50 at 24 h included
CC(=O)Oc1cc(C(F)(F)F)ccc1C(=O)O [Triflusal] ... > 20 µM
O=C(O)COc1ccc(Cl)cc1Cl [2,4-D, Dimethylamine salt] ... > 90 µM

Given the compound CC(O)COc1ccccc1 (stereo not drawn) [1-Phenoxy-2-propanol] , what is its reported CC50 at 24 h?
> 90 µM

I am curious: what CC50 at 24 h value has been reported for O=C(OC[C@H]1O[C@](O)(COC(=O)c2cccnc2)[C@@H](OC(=O)c2cccnc2)[C@@H]1OC(=O)c1cccnc1)c1cccnc1 [Nicofuranose] ?
> 50 µM

Return reported CC50 at 24 h; argument: CNCCC(Oc1ccccc1OC)c1ccccc1 (stereo not drawn) [Nisoxetine]
38.3 µM

I am curious: what CC50 at 24 h value has been reported for C=CCOc1c(Br)cc(C(C)(C)c2cc(Br)c(OCC=C)c(Br)c2)cc1Br [Tetrabromobisphenol A diallyl ether] ?
> 50 µM

Can you share its CC50 at 24 h? I mean this compound: O=C(Nc1ccccc1)c1cc(Cl)ccc1O [5-Chlorosalicylanilide]
7.85 µM

Look at this compound and give its reported CC50 at 24 h. C=CCc1ccc(OC)c(OC)c1 [Methyleugenol]
> 90 µM

Fill blank: measured CC50 at 24 h of the compound Nc1ccccc1S(=O)(=O)O [Orthanilic acid] is ____.
> 90 µM

What value of measured CC50 at 24 h is listed for C[C@H](O)[C@H](O)[C@H]1CNc2nc(N)[nH]c(=O)c2N1 [(6R)-Tetrahydrobiopterin dihydrochloride] ?
> 50 µM

For C1CCN(CN2CCCCC2)CC1 [Dipiperidinomethane] , what is its reported CC50 at 24 h?
> 90 µM

Endpoint output: CC50 at 24 h of O=C(O)CCC(=O)OC[C@@H](NC(=O)C(Cl)Cl)[C@H](O)c1ccc([N+](=O)[O-])cc1 [Chloramphenicol sodium succinate] . Value?
> 50 µM

// query CC50 at 24 h value for entry CCN(CC)CCNc1ccc(CO)c2sc3ccccc3c(=O)c12 [Hycanthone]
2.88 µM

----------
assay: in vitro; conditions: rat, gh3-tre-luc cells, AC50 (uM) modified / 1000, Tox21_110001=Tox21_111921; viability, 1 nM T3 present, 24 h
readout: CC50 at 24 h

CC50 at 24 h lookup needed for CCCC(C)(COC(N)=O)COC(=O)NC1CC1 (stereo not shown) [Lorbamate] , thanks.
> 50 µM

----------
assay: in vitro; details: rat, gh3-tre-luc cells, AC50 (uM) modified / 1000
Where a name gives a salt, the structure may show the parent alone.
# CC50 at 24 h per record follows

Cc1oc(-c2ccccc2)nc1CCOc1cccc2c1ccn2CCC(=O)O [PD-0333941] ... 18.9 µM
CO/N=C1\CN(c2nc3c(cc2F)c(=O)c(C(=O)O)cn3C2CC2)CC1CN (stereo not shown) [Gemifloxacin mesylate] ... > 50 µM
CCOC(=N)CC(=O)OCC ... > 90 µM
C[N+](C)(C)CCOC(N)=O [Carbachol] ... > 50 µM
CCCCCCOC(=O)c1ccccc1O [Hexyl salicylate] ... > 90 µM

Recorded CC50 at 24 h for Cc1ccccc1C(N)=O [2-Methylbenzamide] , please?
> 90 µM

I am curious: what CC50 at 24 h value has been reported for CCc1ccc(CC)cc1 [1,4-Diethylbenzene] ?
> 90 µM

Give the measured CC50 at 24 h of NCCCC(=O)O [4-Aminobutanoic acid] .
> 50 µM

----------
system: GH3-TRE-Luc cell line; details: read-out: AC50 (uM) modified / 1000; Tox21_110001=Tox21_201998; viability, 1 nM T3 present, 24 h
readout: CC50
Give me the value, and tack the unit on after it.

# lookup: CC50 of `c1cnc2c(c1)ccc1cccnc12`
46.4 µM

----------
assay: in vitro; conditions: rat, gh3-tre-luc cells, AC50 (uM) modified / 1000
readout: CC50 at 24 h

For orientation, consider the following solved cases.
Nc1cc(Cl)c([N+](=O)[O-])cc1O ... 36.9 µM
C/C(=C(\CCOP(=O)(O)O)SC(=O)c1ccccc1)N(C=O)Cc1cnc(C)nc1N ... > 20 µM

Which CC50 at 24 h is listed for C=CC(=O)OCCCCCC [Hexyl acrylate] ?
> 90 µM

Entry `Nc1nc(Cl)cc(Cl)n1` : reported CC50 at 24 h = ?
> 90 µM

What does the record list as CC50 at 24 h for `CC[C@H](C)C(=O)O[C@H]1CCC=C2C=C[C@H](C)[C@H](CC[C@@H]3C[C@@H](O)CC(=O)O3)[C@H]21` ?
> 50 µM

----------
assay: in vitro; conditions: rat, gh3-tre-luc cells, AC50 (uM) modified / 1000, Tox21_110001=Tox21_110110; viability, 1 nM T3 present, 24 h
readout: CC50 at 24 h

Fill in the blank: the reported CC50 at 24 h of Clc1cccc(N2CCNCC2)c1 [1-(3-Chlorophenyl)piperazine] is ____.
> 50 µM

----------
test: in vitro; conditions: rat, gh3-tre-luc cells, AC50 (uM) modified / 1000, Tox21_110001=Tox21_300253; viability, 1 nM T3 present, 24 h
readout: CC50 at 24 h

Looking for the measured CC50 at 24 h of `O=C(NC(=O)c1cc(F)c(F)cc1Cl)Nc1cc(F)ccc1N1CCC(C(=O)O)CC1` , can you help?
> 50 µM

----------
assay: in vitro; conditions: rat, gh3-tre-luc cells, AC50 (uM) modified / 1000
readout: CC50 at 24 h

Worked set:
OCCN1CCOCC1 [4-(2-Hydroxyethyl)morpholine] ... > 90 µM
C#CC(C)(O)CC(C)C (stereo not shown) ... > 90 µM
CCC1=C(C)CN(C(=O)NCCc2ccc(S(=O)(=O)NC(=O)N[C@H]3CC[C@H](C)CC3)cc2)C1=O [Glimepiride] ... > 50 µM
CC1(C)S[C@@H]2[C@H](N)C(=O)N2[C@H]1C(=O)O ... > 20 µM
CCCCCCCC=O ... > 90 µM

CC50 at 24 h lookup needed for `COCC(=O)O` , thanks.
> 90 µM

----------
experiment: in vitro; conditions: rat, gh3-tre-luc cells, AC50 (uM) modified / 1000
Here, each record is paired with measured CC50 at 24 h data.

# count of solved cases: 10
CC(C)(C)c1cc(Cc2cc(C(C)(C)C)c(O)c(C(C)(C)C)c2)cc(C(C)(C)C)c1O ... > 90 µM
C=CCOC(=O)CCC1CCCCC1 [Prop-2-en-1-yl 3-cyclohexylpropanoate] ... > 90 µM
Cc1ccccc1[N+](=O)[O-] ... > 90 µM
Cc1cc(C(=O)NCCc2ccc(S(=O)(=O)NC(=O)NN3CCCCCC3)cc2)no1 [Glisoxepide] ... > 50 µM
c1ccc(CNc2ncnc3nc[nH]c23)cc1 ... > 90 µM
COc1ccc2c(c1OC)CN1CCc3cc4c(cc3[C@@H]1C2)OCO4 ... > 20 µM
O=C1C(=O)c2ncccc2-c2cccnc21 ... 1.78 µM
NCc1cccnc1 ... > 90 µM
C/C(=C(\CCOC(=O)c1ccccc1)SS/C(CCOC(=O)c1ccccc1)=C(/C)N(C=O)Cc1cnc(C)nc1N)N(C=O)Cc1cnc(C)nc1N ... 25.6 µM
CCCCCCCCCCCCCCCC[N+](C)(C)CC [Ethylhexadecyldimethylammonium bromide] ... 11.9 µM

// switching to the query molecule
Would you kindly share the measured CC50 at 24 h for `c1coc(-c2nc3ccccc3[nH]2)c1` ?
> 90 µM

----------
tested on: GH3-TRE-Luc cell line; settings: read-out: AC50 (uM) modified / 1000; Tox21_110001=Tox21_112389; viability, 1 nM T3 present, 24 h
readout: CC50 (µM)
Provide the reading as a plain figure in µM.

Given `C=C[C@H]1C[N@@]2CC[C@H]1C[C@H]2[C@H](O)c1ccnc2ccc(OC)cc12` , state its recorded CC50.
42.9

Entry source: paper PMC6792352
